- SUBJECT OF TEST: STAT3 (Homo sapiens)
- Sequence (P40763 whole entry): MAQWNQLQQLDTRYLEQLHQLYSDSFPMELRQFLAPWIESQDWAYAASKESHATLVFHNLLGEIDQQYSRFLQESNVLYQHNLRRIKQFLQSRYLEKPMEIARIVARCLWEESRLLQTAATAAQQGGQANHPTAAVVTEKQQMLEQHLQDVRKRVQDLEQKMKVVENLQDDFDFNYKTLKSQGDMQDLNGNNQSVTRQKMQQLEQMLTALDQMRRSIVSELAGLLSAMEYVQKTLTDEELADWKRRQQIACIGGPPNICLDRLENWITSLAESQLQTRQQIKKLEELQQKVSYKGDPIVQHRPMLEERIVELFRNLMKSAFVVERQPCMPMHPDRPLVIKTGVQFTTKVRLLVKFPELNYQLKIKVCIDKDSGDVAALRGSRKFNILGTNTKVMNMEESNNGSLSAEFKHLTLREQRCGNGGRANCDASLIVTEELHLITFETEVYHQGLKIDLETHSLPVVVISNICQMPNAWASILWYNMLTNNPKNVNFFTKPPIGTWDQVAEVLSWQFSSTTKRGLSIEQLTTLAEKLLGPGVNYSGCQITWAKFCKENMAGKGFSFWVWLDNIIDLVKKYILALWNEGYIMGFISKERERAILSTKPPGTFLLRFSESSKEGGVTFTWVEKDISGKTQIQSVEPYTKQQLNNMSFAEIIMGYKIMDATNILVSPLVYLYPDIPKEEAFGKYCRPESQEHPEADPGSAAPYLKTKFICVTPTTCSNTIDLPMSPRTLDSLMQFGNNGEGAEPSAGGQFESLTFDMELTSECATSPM
- METHOD NOTES: STAT3 HiBiT degradation assay in transfected A549 cells
- Format: cell-based
- Parameters: expressed in transfected cells; host or cells: A549
- PARTICULARS: A549, 24 h; read-out: STAT3 HiBiT A549 degradation 24 h: Average external-Abs DC50
The entries below come with measured DC50 values attached.
ENDPOINT: DC50

MOLECULE	ENDPOINT	RESULT
Cc1ncsc1-c1ccc(CNC(=O)[C@@H]2C[C@@H](O)CN2C(=O)[C@@H](NC(=O)CCCCCc2cccc(O[C@H](C)[C@H](CCC(N)=O)NC(=O)[C@@H]3Cc4cccc5c4N3C(=O)[C@@H](NC(=O)c3cc4cc(C(=O)P(=O)(O)O)ccc4[nH]3)CC5)c2)C(C)(C)C)cc1 [Compound I-210]	DC50	> 1000 nM
Cc1ncsc1-c1ccc([C@H](C)NC(=O)[C@@H]2C[C@@H](O)CN2C(=O)[C@@H](NC(=O)CCCCCc2cccc(OC[C@H](CCC(N)=O)NC(=O)[C@@H]3CCCN3C(=O)[C@H](CC(C)C)NC(=O)c3cc4cc(C(=O)P(=O)(O)O)ccc4[nH]3)c2F)C(C)(C)C)cc1 [Compound I-279]	DC50	< 10 nM
CC(=O)O[C@@H]1C[C@@H](C(=O)N[C@@H](C)c2ccc(-c3scnc3C)cc2)N(C(=O)[C@@H](NC(=O)CCCCCc2cccc(OC[C@H](CCC(N)=O)NC(=O)[C@@H]3Cc4cccc5c4N3C(=O)[C@@H](NC(=O)c3cc4cc(C(=O)P(=O)(O)O)ccc4[nH]3)CC5)c2F)C(C)(C)C)C1 [Compound I-272]	DC50	< 10 nM
Cc1ncsc1-c1ccc([C@H](C)NC(=O)[C@@H]2C[C@@H](O)CN2C(=O)[C@@H](NC(=O)CCCCCc2cccc(O[C@H](C)[C@H](CCC(N)=O)NC(=O)[C@@H]3Cc4cccc5c4N3C(=O)[C@@H](NC(=O)c3cc4cc(C(=O)P(=O)(O)O)ccc4[nH]3)CC5)c2)C(C)(C)C)cc1 [Compound I-219]	DC50	100 to 1000 nM
Cc1ncsc1-c1ccc([C@H](C)NC(=O)[C@@H]2C[C@@H](O)CN2C(=O)[C@@H](NC(=O)CCCCCc2cc(OC[C@H](CCC(N)=O)NC(=O)[C@@H]3Cc4cccc5c4N3C(=O)[C@@H](NC(=O)c3cc4cc(C(=O)P(=O)(O)O)ccc4[nH]3)CC5)ccc2F)C(C)(C)C)cc1 [Compound I-215]	DC50	10 to 100 nM
Cn1c(=O)n(C2CCC(=O)NC2=O)c2ccc(C[C@H]3CC[C@@H](CC(=O)N4CC[C@H]5CC[C@@H](C(=O)N[C@@H](CCC(N)=O)C(=O)NCc6cccc7ccccc67)N5C(=O)[C@@H](NC(=O)c5cc6cc(C(=O)P(=O)(O)O)ccc6[nH]5)C4)CC3)cc21 (stereo partly shown) [Compound I-197]	DC50	100 to 1000 nM
Cn1c(=O)n(C2CCC(=O)NC2=O)c2ccc(C3CCN(CCCC(=O)N4CC[C@H]5CC[C@@H](C(=O)N[C@@H](CCC(N)=O)C(=O)NC(c6ccccc6)c6ccccc6)N5C(=O)[C@@H](NC(=O)c5cc6cc(C(=O)P(=O)(O)O)ccc6[nH]5)C4)CC3)cc21 (stereo partly shown) [Compound I-169]	DC50	100 to 1000 nM
Cn1c(=O)n(C2CCC(=O)NC2=O)c2ccc(C[C@H]3CC[C@H](CCC(=O)N4CC[C@H]5CC[C@@H](C(=O)N[C@@H](CCC(N)=O)C(=O)NC(c6ccccc6)c6ccccc6)N5C(=O)[C@@H](NC(=O)c5cc6cc(C(=O)P(=O)(O)O)ccc6[nH]5)C4)CC3)cc21 (stereo partly shown) [Compound I-167]	DC50	100 to 1000 nM
Cc1ncsc1-c1ccc([C@H](C)NC(=O)[C@@H]2C[C@@H](O)CN2C(=O)[C@@H](NC(=O)CCCCCc2ccc(Cl)c(OC[C@H](CCC(N)=O)NC(=O)[C@@H]3Cc4cccc5c4N3C(=O)[C@@H](NC(=O)c3cc4cc(C(=O)P(=O)(O)O)ccc4[nH]3)CC5)c2)C(C)(C)C)cc1 [Compound I-200]	DC50	> 1000 nM
Cc1ncsc1-c1ccc(CNC(=O)[C@@H]2C[C@@H](O)CN2C(=O)[C@@H](NC(=O)CCc2ccc3ccc(CO[C@H](C)[C@H](CCC(N)=O)NC(=O)[C@@H]4Cc5cccc6c5N4C(=O)[C@@H](NC(=O)c4cc5cc(C(=O)P(=O)(O)O)ccc5[nH]4)CC6)cc3c2)C(C)(C)C)cc1 [Compound I-126]	DC50	> 1000 nM
Cn1c(=O)n(C2CCC(=O)NC2=O)c2ccc(N3CCN(CCC(=O)N4CC[C@H]5CC[C@@H](C(=O)N[C@@H](CCC(N)=O)C(=O)NC(c6ccccc6)c6ccccc6)N5C(=O)[C@@H](NC(=O)c5cc6cc(C(=O)P(=O)(O)O)ccc6[nH]5)C4)CC3)cc21 (stereo partly shown) [Compound I-175]	DC50	100 to 1000 nM
Cn1c(=O)n(C2CCC(=O)NC2=O)c2ccc(CC[C@H]3CC[C@H](C(=O)N4CC[C@H]5CC[C@@H](C(=O)N[C@@H](CCC(N)=O)C(=O)NC(c6ccccc6)c6ccccc6)N5C(=O)[C@@H](NC(=O)c5cc6cc(C(=O)P(=O)(O)O)ccc6[nH]5)C4)CC3)cc21 (stereo partly shown) [Compound I-203]	DC50	10 to 100 nM
CC(=O)N1CC[C@H]2CC[C@@H](C(=O)N[C@@H](CCC(N)=O)COc3cccc(CCCC(=O)N[C@H](C(=O)N4C[C@H](O)C[C@H]4C(=O)N[C@@H](C)c4ccc(-c5scnc5C)cc4)C(C)(C)C)c3F)N2C(=O)[C@@H](NC(=O)c2cc3cc(C(=O)P(=O)(O)O)ccc3[nH]2)C1 [Compound I-231]	DC50	10 to 100 nM
